All values here come from patent US8835433B2.

clearance: recorded values
Test: Pharmacokinetics in dog (PDX-T-07054-D)
Type: in vivo
Details: dog, plasma, 0.7 mg/kg, dog, Day 1; calculated using average BW 8.5 kg; read-out: CLtot relative to BW
Description: Bioanalytical methods were developed and validated for quantitation of the 2 pralatrexate C10 diastereomers (PDX-10a and PDX-10b) in human, rat and dog plasma and urine. […] The derivatized extracts are injected on a chiral high-performance liquid chromatography (HPLC) column for quantitation of each diastereomer by liquid chromatography-tandem mass spectrometry (LC/MS/MS). The lower limit of quantitation (LLOQ) for both diastereomers in plasma and urine matrices was 0.5 ng/mL. […]

compound | reported value
C#CC[C@@H](Cc1cnc2nc(N)nc(N)c2n1)c1ccc(C(=O)N[C@@H](CCC(=O)O)C(=O)O)cc1 (single isomer, unassigned) [PDX-10a] | 4 to 10 mL/min/kg

Proceed to the following item.
So, C#CC[C@H](Cc1cnc2nc(N)nc(N)c2n1)c1ccc(C(=O)N[C@@H](CCC(=O)O)C(=O)O)cc1 (single isomer, unassigned) [PDX-10b] ? Its clearance was 4 to 10 mL/min/kg
